# credit: the supplement of paper PMC7394473

# Test system: U2OS
# measurement_notes: fractional viability (live cells / total cells); higher = less cell death
# particulars: 0.100144 µM; 72 h
So basically, if fractional viability comes in under 0.5 it's true (1), and if it's 0.5 or more it's false (0).

smiles_data: CCOc1cc2ncc(C#N)c(Nc3ccc(OCc4ccccn4)c(Cl)c3)c2cc1NC(=O)/C=C/CN(C)C
assigned_category: false (0)
//
smiles_data: CCNC(=O)c1noc(-c2cc(C(C)C)c(O)cc2O)c1-c1ccc(CN2CCOCC2)cc1
assigned_category: true (1)
//
smiles_data: CC[C@@H]1C(=O)N(C)c2cnc(Nc3ccc(C(=O)N[C@H]4CC[C@H](N5CCN(CC6CC6)CC5)CC4)cc3OC)nc2N1C(C)C
assigned_category: false (0)
//
smiles_data: CC(=O)Nc1cccc(-n2c(=O)n(C3CC3)c(=O)c3c(Nc4ccc(I)cc4F)n(C)c(=O)c(C)c32)c1
assigned_category: false (0)
//
smiles_data: CCc1cnn2c(NCc3ccc[n+]([O-])c3)cc(N3CCCC[C@H]3CCO)nc12
assigned_category: true (1)

====

# System: U2OS
# measurement_notes: normalized growth rate inhibition value (GR) relative to untreated cells (GR value (dimensionless, 1 = untreated growth)); higher = less growth inhibition
# particulars: 1 µM; 72 h

compound: CC[C@@H]1C(=O)N(C)c2cnc(Nc3ccc(C(=O)N[C@H]4CC[C@H](N5CCN(CC6CC6)CC5)CC4)cc3OC)nc2N1C(C)C
normalized growth rate inhibition value: -0.259
--
compound: Cc1cc2c(C(=O)NC[C@H](C)c3ccccc3)c(O)c(O)cc2c(O)c1-c1c(C)cc2c(C(=O)NC[C@H](C)c3ccccc3)c(O)c(O)cc2c1O
normalized growth rate inhibition value: 0.77
--
compound: C[C@H]1[C@H](OC(=O)CCC(=O)O)O[C@@H]2O[C@@]3(C)CC[C@H]4[C@H](C)CC[C@@H]1[C@@]24OO3 [Artesunate]
normalized growth rate inhibition value: 0.89
--
compound: Nc1ccc(-c2ccc3ncc4ccc(=O)n(-c5cccc(C(F)(F)F)c5)c4c3c2)cn1
normalized growth rate inhibition value: 0.523
--
compound: COCC[n+]1c2c(n(Cc3cnccn3)c1C)C(=O)c1ccccc1C2=O
normalized growth rate inhibition value: -0.94
--
compound: Cc1[nH]c2ccccc2c1CCNCc1ccc(/C=C/C(=O)NO)cc1
normalized growth rate inhibition value: 0.00935
--
compound: CCOc1ccccc1-n1c(C(C)N2CCN(C(=O)COc3ccc(Cl)cc3)CC2)nc2ccccc2c1=O (centres undefined)
normalized growth rate inhibition value: 0.826
--
compound: CC(=O)O[C@H]1C(=O)[C@@]2(C)[C@H]([C@H](OC(=O)c3ccccc3)[C@]3(O)C[C@H](OC(=O)[C@H](O)[C@@H](NC(=O)c4ccccc4)c4ccccc4)C(C)=C1C3(C)C)[C@]1(OC(C)=O)CO[C@@H]1C[C@@H]2O
normalized growth rate inhibition value: 0.0877
--
compound: CC(=O)Nc1cccc(-n2c(=O)n(C3CC3)c(=O)c3c(Nc4ccc(I)cc4F)n(C)c(=O)c(C)c32)c1
normalized growth rate inhibition value: 0.0402
--
compound: Cc1cc(Nc2ccc(NC(=O)c3ccc(Nc4ccnc5ccccc45)cc3)cc2)nc(N)n1
normalized growth rate inhibition value: 0.642
--
compound: CC(=O)c1c(C)c2cnc(Nc3ccc(N4CCNCC4)cn3)nc2n(C2CCCC2)c1=O
normalized growth rate inhibition value: 0.525
--
compound: CCC(=O)N1CCN(c2ccc(-n3c(=O)ccc4cnc5ccc(-c6cnc7ccccc7c6)cc5c43)cc2C(F)(F)F)CC1
normalized growth rate inhibition value: 0.404
--
compound: C[C@@H]1O[C@@H](O[C@H]2C[C@@H](O)[C@]3(CO)[C@H]4[C@H](O)C[C@]5(C)[C@@H](C6=CC(=O)OC6)CC[C@]5(O)[C@@H]4CC[C@]3(O)C2)[C@H](O)[C@H](O)[C@H]1O
normalized growth rate inhibition value: -0.569
--
compound: CC(C)C[C@@H](C=O)NC(=O)[C@H](CC(C)C)NC(=O)[C@H](CC(C)C)NC(=O)OCc1ccccc1
normalized growth rate inhibition value: 0.524
--
compound: C=CCn1c(=O)c2cnc(Nc3ccc(N4CCN(C)CC4)cc3)nc2n1-c1cccc(C(C)(C)O)n1
normalized growth rate inhibition value: -0.346
--
compound: COc1cc2nccc(Oc3ccc(NC(=O)Nc4cc(C)on4)c(Cl)c3)c2cc1OC
normalized growth rate inhibition value: 0.812
--
compound: CN(C)/N=N/c1[nH]cnc1C(N)=O
normalized growth rate inhibition value: 0.934
--
compound: Cc1ccc(Nc2nccc(N(C)c3ccc4c(C)n(C)nc4c3)n2)cc1S(N)(=O)=O
normalized growth rate inhibition value: 1.04
--
compound: C=CCNc1ncnc2ccc(Br)cc12
normalized growth rate inhibition value: 1.02
--
compound: O=C(O)CCNc1cc(N2CCc3ccccc3CC2)nc(-c2ccccn2)n1
normalized growth rate inhibition value: 1.02
--
compound: CCOc1cc2ncc(C#N)c(Nc3ccc(OCc4ccccn4)c(Cl)c3)c2cc1NC(=O)/C=C/CN(C)C
normalized growth rate inhibition value: 0.255
--
compound: Nc1ccccc1NC(=O)c1ccc(CNC(=O)OCc2cccnc2)cc1
normalized growth rate inhibition value: 0.741
--
compound: C#Cc1cccc(Nc2ncnc3cc(OCCOC)c(OCCOC)cc23)c1
normalized growth rate inhibition value: 1.06
--
compound: O=C(O)CCCc1ccc(N(CCCl)CCCl)cc1
normalized growth rate inhibition value: 0.93
--
compound: C=CCc1ccc(O)c(-c2ccc(O)c(CC=C)c2)c1
normalized growth rate inhibition value: 0.897
--
compound: CNc1ccc2oc(C[C@H]3O[C@@]4(CC[C@H]3C)O[C@H]([C@H](C)C(=O)c3ccc[nH]3)[C@H](C)C[C@H]4C)nc2c1C(=O)O
normalized growth rate inhibition value: 0.612
--
compound: CC[C@@H](C(=O)[C@@H](C)[C@@H](O)[C@H](C)[C@@H]1O[C@@H]([C@@H](CC)C(=O)O)CC[C@@H]1C)[C@H]1O[C@]2(C=C[C@@H](O)[C@]3(CC[C@@](C)([C@H]4CC[C@](O)(CC)[C@H](C)O4)O3)O2)[C@H](C)C[C@@H]1C
normalized growth rate inhibition value: 0.63
--
compound: CO[C@@H]1C[C@@H](C[C@H]2CC[C@H](C)[C@H]([C@@H](C)C(=O)O)O2)O[C@]2(O[C@](C)([C@H]3CC[C@@](C)([C@@H]4O[C@@H]([C@H]5O[C@@](O)(CO)[C@H](C)C[C@@H]5C)C[C@@H]4C)O3)C[C@H]2C)[C@@H]1C
normalized growth rate inhibition value: 0.277
--
compound: Cn1nnc2c(C(N)=O)ncn2c1=O [Temozolamide]
normalized growth rate inhibition value: 0.984
